assay: Saturation shake-flask equilibrium solubility (48 h, 37 °C, UV-Vis); type: physicochemical; conditions: distilled water, thermodynamic from solid; Water, pH 6.5 before incubation, 48 h, 37 °C; read-out: Css mean
reported-property: solubility thermodynamic at 48 h (µg/mL)

compound | number
CC(C)Cc1ccc(C(C)C(=O)O)cc1 (stereo not shown) [IBU, Ibuprofen] | 3120

----------
experiment: Saturation shake-flask equilibrium solubility (48 h, 37 °C, UV-Vis); format: physicochemical; conditions: aqueous buffer, thermodynamic from solid; Phosphate buffer, pH 7.4 before incubation, 48 h, 37 °C; read-out: Css mean

compound | solubility thermodynamic at 48 h (µg/mL)
CC(C)Cc1ccc(C(C)C(=O)O)cc1 (centres unmarked) [IBU, Ibuprofen] | 10400
CN1C(C(=O)Nc2ccccn2)=C(O)c2ccccc2S1(=O)=O [PXM, Piroxicam] | 1290

----------
experiment: Saturation shake-flask equilibrium solubility (48 h, 37 °C, UV-Vis); type: physicochemical; conditions: simulated gastric fluid, thermodynamic from solid; hydrochloric acid buffer, pH 1.2 before incubation, 48 h, 37 °C; read-out: Css mean

molecule | solubility thermodynamic at 48 h, µg/mL
CC(C)Cc1ccc(C(C)C(=O)O)cc1 (stereo not shown) | 800

----------
assay: Saturation shake-flask equilibrium solubility (48 h, 37 °C, UV-Vis); assay type: physicochemical; conditions: aqueous buffer, thermodynamic from solid; Citrate buffer, pH 6 before incubation, 48 h, 37 °C; read-out: Css mean
solubility thermodynamic at 48 h values for the compounds below.

compound | units-of-measure | solubility thermodynamic at 48 h
CC(C)Cc1ccc(C(C)C(=O)O)cc1 (centres unmarked) | µg/mL | 5200
CN1C(C(=O)Nc2ccccn2)=C(O)c2ccccc2S1(=O)=O | µg/mL | 140
